Measured pIC50 by item
# target: mNaV1.6 (Mus musculus)
# Sequence (Q9WTU3 whole entry): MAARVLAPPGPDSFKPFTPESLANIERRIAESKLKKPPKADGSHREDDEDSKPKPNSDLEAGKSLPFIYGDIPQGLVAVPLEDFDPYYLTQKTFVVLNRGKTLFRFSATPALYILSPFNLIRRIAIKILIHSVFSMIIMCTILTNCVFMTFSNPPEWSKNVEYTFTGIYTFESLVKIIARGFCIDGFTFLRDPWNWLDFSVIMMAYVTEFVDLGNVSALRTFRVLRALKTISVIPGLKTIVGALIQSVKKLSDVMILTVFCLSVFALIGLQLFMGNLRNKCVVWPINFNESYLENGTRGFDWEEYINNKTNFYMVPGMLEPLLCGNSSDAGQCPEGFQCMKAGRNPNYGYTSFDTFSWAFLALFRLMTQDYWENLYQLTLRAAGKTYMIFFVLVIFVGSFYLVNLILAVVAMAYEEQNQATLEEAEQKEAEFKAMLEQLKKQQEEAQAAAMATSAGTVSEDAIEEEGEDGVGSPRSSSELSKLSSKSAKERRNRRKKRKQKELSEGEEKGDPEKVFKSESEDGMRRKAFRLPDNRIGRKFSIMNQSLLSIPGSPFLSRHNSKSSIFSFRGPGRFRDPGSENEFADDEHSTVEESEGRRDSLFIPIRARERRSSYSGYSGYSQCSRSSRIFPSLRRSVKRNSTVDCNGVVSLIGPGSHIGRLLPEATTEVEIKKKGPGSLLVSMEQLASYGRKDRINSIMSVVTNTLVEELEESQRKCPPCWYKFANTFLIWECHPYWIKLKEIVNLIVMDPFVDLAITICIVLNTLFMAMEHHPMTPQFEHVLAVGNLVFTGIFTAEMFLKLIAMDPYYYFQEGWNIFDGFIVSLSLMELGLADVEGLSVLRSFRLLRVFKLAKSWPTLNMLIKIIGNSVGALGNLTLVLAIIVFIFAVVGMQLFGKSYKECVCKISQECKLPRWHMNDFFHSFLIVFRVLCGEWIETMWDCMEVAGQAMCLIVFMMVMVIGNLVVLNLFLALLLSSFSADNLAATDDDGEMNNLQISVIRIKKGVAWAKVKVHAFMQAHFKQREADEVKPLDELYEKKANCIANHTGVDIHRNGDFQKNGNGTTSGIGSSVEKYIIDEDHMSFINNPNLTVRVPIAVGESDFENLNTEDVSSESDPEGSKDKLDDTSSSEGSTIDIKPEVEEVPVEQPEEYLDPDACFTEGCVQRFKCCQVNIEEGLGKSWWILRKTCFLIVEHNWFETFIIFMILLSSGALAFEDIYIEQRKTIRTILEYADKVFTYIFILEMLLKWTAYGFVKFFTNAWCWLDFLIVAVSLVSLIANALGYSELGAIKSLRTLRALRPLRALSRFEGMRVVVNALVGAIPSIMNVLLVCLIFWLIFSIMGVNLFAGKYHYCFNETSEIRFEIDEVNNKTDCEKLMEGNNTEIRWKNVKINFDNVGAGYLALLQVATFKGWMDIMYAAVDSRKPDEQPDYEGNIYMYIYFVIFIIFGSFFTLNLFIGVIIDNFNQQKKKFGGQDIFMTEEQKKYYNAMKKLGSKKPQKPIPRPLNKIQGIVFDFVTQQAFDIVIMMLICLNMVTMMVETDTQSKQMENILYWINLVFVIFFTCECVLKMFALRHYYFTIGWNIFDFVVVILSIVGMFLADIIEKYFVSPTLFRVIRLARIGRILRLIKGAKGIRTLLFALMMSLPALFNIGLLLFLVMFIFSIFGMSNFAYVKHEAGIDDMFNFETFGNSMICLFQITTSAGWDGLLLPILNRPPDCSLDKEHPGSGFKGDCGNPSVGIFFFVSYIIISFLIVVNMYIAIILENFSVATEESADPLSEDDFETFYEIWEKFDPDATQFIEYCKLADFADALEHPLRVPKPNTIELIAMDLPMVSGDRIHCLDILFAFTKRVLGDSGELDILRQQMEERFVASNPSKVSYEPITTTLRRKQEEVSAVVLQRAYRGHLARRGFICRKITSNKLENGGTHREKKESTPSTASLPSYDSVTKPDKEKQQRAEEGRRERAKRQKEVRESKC
# procedure.details: Two-electrode voltage-clamp on Xenopus laevis oocytes expressing NaV1.6
pIC50: −log10 of the molar value. Where a SMILES comes first, the peptide text is derived from it. Bridges are numbered along the chain shown (N, C = ends).
experimental.endpoint: pIC50

>>> observed("C[C@@H]1NC(=O)[C@H](Cc2c[nH]c3ccccc23)NC(=O)[C@H](CCCNC(=N)N)NC(=O)[C@H](CCCNC(=N)N)NC(=O)[C@@H](N)CSSC[C@@H](C(N)=O)NC(=O)[C@H](CCCNC(=N)N)NC(=O)[C@H](CCCCN)NC(=O)[C@H](Cc2c[nH]c3ccccc23)NC(=O)[C@H](CCCNC(=N)N)NC1=O [PnCS1[N8K], CRRWARWKRC ^*] (H-CRRWARWKRC-NH2; disulfide 1-10)")
6.30
>>> observed("C[C@@H]1NC(=O)[C@H](CCCCN)NC(=O)[C@H](CCCNC(=N)N)NC(=O)[C@H](CCCNC(=N)N)NC(=O)[C@@H](N)CSSC[C@@H](C(N)=O)NC(=O)[C@H](CCCNC(=N)N)NC(=O)[C@H](CC(N)=O)NC(=O)[C@H](Cc2c[nH]c3ccccc23)NC(=O)[C@H](CCCNC(=N)N)NC1=O [PnCS1[W4K], CRRKARWNRC ^*] (H-CRRKARWNRC-NH2; disulfide 1-10)")
6.15
>>> observed("C[C@@H]1NC(=O)[C@H](Cc2c[nH]c3ccccc23)NC(=O)[C@H](CCCCN)NC(=O)[C@H](CCCNC(=N)N)NC(=O)[C@@H](N)CSSC[C@@H](C(N)=O)NC(=O)[C@H](CCCNC(=N)N)NC(=O)[C@H](CC(N)=O)NC(=O)[C@H](Cc2c[nH]c3ccccc23)NC(=O)[C@H](CCCNC(=N)N)NC1=O [PnCS1[R3K], CRKWARWNRC ^*] (H-CRKWARWNRC-NH2; disulfide 1-10)")
6.10

###

# target: UniProt:Q9WTU3
# procedure.details: Two-electrode voltage-clamp on Xenopus laevis oocytes expressing NaV1.6
Where a SMILES comes first, the peptide text is derived from it. Bridges are numbered along the chain shown (N, C = ends).
experimental.endpoint: IC50 (µM)

>>> observed("C[C@@H]1NC(=O)[C@H](CCCNC(=N)N)NC(=O)[C@H](C)NC(=O)[C@H](Cc2c[nH]c3ccccc23)NC(=O)[C@H](CCCNC(=N)N)NC(=O)[C@H](CCCNC(=N)N)NC(=O)[C@@H](N)CSSC[C@@H](C(N)=O)NC(=O)[C@H](CCCNC(=N)N)NC(=O)[C@H](CC(N)=O)NC1=O [PnCS1[W7A], CRRWARANRC ^*] (H-CRRWARANRC-NH2; disulfide 1-10)")
11.4

###

# target: UniProt:Q62968
# Sequence (Q62968 whole entry): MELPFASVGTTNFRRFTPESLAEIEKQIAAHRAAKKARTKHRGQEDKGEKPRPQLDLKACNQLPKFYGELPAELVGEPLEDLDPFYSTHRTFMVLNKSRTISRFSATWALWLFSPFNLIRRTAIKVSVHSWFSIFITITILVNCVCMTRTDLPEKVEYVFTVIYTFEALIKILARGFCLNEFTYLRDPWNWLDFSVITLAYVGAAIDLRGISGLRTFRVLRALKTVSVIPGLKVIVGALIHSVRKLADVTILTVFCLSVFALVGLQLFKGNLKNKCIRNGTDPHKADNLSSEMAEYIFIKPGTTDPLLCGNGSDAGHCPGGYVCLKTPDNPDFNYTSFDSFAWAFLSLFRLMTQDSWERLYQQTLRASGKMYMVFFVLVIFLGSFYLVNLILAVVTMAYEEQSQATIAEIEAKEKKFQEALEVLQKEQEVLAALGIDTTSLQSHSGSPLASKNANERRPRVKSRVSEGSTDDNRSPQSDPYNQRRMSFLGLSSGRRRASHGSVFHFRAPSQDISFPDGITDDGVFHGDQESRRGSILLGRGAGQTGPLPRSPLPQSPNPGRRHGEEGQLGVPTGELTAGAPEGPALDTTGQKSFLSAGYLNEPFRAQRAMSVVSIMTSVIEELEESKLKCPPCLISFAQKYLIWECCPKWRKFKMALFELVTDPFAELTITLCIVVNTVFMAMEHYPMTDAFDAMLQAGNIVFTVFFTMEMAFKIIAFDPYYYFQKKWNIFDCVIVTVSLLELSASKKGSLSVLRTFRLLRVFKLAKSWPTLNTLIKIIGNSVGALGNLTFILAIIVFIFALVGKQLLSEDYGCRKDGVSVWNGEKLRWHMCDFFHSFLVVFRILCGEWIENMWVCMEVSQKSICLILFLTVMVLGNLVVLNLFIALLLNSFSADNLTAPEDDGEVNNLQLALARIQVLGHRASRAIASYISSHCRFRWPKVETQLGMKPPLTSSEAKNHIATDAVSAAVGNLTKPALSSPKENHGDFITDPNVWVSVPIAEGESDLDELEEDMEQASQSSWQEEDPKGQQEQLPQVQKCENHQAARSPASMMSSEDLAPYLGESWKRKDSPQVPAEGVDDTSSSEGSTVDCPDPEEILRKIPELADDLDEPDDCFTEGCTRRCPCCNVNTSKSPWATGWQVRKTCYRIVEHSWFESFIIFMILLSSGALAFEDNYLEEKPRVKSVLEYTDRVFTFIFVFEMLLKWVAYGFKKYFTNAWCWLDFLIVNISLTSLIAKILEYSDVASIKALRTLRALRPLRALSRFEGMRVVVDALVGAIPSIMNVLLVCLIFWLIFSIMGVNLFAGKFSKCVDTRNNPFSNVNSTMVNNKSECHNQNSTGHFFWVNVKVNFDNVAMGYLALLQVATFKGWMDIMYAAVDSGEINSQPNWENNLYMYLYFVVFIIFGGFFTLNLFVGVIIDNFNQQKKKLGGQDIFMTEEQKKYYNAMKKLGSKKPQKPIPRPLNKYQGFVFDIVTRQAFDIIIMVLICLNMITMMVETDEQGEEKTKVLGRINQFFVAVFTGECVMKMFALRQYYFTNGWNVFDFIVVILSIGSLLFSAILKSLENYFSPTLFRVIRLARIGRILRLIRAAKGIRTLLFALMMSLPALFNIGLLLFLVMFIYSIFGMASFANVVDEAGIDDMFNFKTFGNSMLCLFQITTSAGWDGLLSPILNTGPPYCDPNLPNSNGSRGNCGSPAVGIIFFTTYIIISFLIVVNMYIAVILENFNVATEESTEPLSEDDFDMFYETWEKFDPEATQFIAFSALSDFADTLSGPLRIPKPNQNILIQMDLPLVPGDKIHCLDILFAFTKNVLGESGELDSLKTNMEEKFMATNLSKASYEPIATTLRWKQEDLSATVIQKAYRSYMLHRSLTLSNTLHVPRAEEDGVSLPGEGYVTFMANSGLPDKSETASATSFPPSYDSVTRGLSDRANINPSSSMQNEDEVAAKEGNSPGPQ
# procedure.details: Two-electrode voltage-clamp on Xenopus laevis oocytes expressing NaV1.8
# test.context: read-out: Maximum % inhibition NaV1.8
Where a SMILES comes first, the peptide text is derived from it. Bridges are numbered along the chain shown (N, C = ends).
# reported inhibition at 100 µM; entries follow
experimental.endpoint: inhibition at 100 µM

>>> observed("C[C@@H]1NC(=O)[C@H](Cc2c[nH]c3ccccc23)NC(=O)[C@H](C)NC(=O)[C@H](CCCNC(=N)N)NC(=O)[C@@H](N)CSSC[C@@H](C(N)=O)NC(=O)[C@H](CCCNC(=N)N)NC(=O)[C@H](CC(N)=O)NC(=O)[C@H](Cc2c[nH]c3ccccc23)NC(=O)[C@H](CCCNC(=N)N)NC1=O [PnCS1[R3A], CRAWARWNRC ^*] (H-CRAWARWNRC-NH2; disulfide 1-10)")
"0%"
>>> observed("C[C@@H]1NC(=O)[C@H](CCCNC(=N)N)NC(=O)[C@H](C)NC(=O)[C@H](Cc2c[nH]c3ccccc23)NC(=O)[C@H](CCCNC(=N)N)NC(=O)[C@H](CCCNC(=N)N)NC(=O)[C@@H](N)CSSC[C@@H](C(N)=O)NC(=O)[C@H](CCCNC(=N)N)NC(=O)[C@H](CC(N)=O)NC1=O [PnCS1[W7A], CRRWARANRC ^*] (H-CRRWARANRC-NH2; disulfide 1-10)")
"0%"
>>> observed("C[C@@H]1NC(=O)[C@H](Cc2c[nH]c3ccccc23)NC(=O)[C@H](CCCNC(=N)N)NC(=O)[C@H](CCCNC(=N)N)NC(=O)[C@@H](N)CSSC[C@@H](C(=O)O)NC(=O)[C@H](CCCNC(=N)N)NC(=O)[C@H](CC(N)=O)NC(=O)[C@H](Cc2c[nH]c3ccccc23)NC(=O)[C@H](CCCNC(=N)N)NC1=O [PnCS1DeAm, CRRWARWNRC] (H-CRRWARWNRC-OH; disulfide 1-10)")
"0%"
>>> observed("C[C@@H]1NC(=O)[C@H](Cc2c[nH]c3ccccc23)NC(=O)[C@H](CCCNC(=N)N)NC(=O)[C@H](CCCNC(=N)N)NC(=O)[C@@H](N)CSSC[C@@H](C(N)=O)NC(=O)[C@H](CCCNC(=N)N)NC(=O)[C@H](CC(N)=O)NC(=O)[C@H](Cc2c[nH]c3ccccc23)NC(=O)[C@H](CCCCN)NC1=O [PnCS1[R6K], CRRWAKWNRC ^*] (H-CRRWAKWNRC-NH2; disulfide 1-10)")
"0%"
>>> observed("C[C@@H]1NC(=O)[C@H](C)NC(=O)[C@H](Cc2c[nH]c3ccccc23)NC(=O)[C@H](CCCNC(=N)N)NC(=O)[C@H](CCCNC(=N)N)NC(=O)[C@@H](N)CSSC[C@@H](C(N)=O)NC(=O)[C@H](CCCNC(=N)N)NC(=O)[C@H](CC(N)=O)NC(=O)[C@H](Cc2c[nH]c3ccccc23)NC1=O [PnCS1[R6A], CRRWAAWNRC ^*] (H-CRRWAAWNRC-NH2; disulfide 1-10)")
"0%"
>>> observed("C[C@@H]1NC(=O)[C@H](Cc2c[nH]c3ccccc23)NC(=O)[C@H](CCCNC(=N)N)NC(=O)[C@H](CCCNC(=N)N)NC(=O)[C@@H](N)CSSC[C@@H](C(N)=O)NC(=O)[C@H](CCCNC(=N)N)NC(=O)[C@H](CCC(=O)O)NC(=O)[C@H](Cc2c[nH]c3ccccc23)NC(=O)[C@H](CCCNC(=N)N)NC1=O [PnCS1[N8E], CRRWARWERC ^*] (H-CRRWARWERC-NH2; disulfide 1-10)")
"0%"
>>> observed("C[C@@H]1NC(=O)[C@H](CCCCN)NC(=O)[C@H](CCCNC(=N)N)NC(=O)[C@H](CCCNC(=N)N)NC(=O)[C@@H](N)CSSC[C@@H](C(N)=O)NC(=O)[C@H](CCCNC(=N)N)NC(=O)[C@H](CC(N)=O)NC(=O)[C@H](Cc2c[nH]c3ccccc23)NC(=O)[C@H](CCCNC(=N)N)NC1=O [PnCS1[W4K], CRRKARWNRC ^*] (H-CRRKARWNRC-NH2; disulfide 1-10)")
"0%"
>>> observed("C[C@@H]1NC(=O)[C@H](Cc2c[nH]c3ccccc23)NC(=O)[C@H](CCCCN)NC(=O)[C@H](CCCNC(=N)N)NC(=O)[C@@H](N)CSSC[C@@H](C(N)=O)NC(=O)[C@H](CCCNC(=N)N)NC(=O)[C@H](CC(N)=O)NC(=O)[C@H](Cc2c[nH]c3ccccc23)NC(=O)[C@H](CCCNC(=N)N)NC1=O [PnCS1[R3K], CRKWARWNRC ^*] (H-CRKWARWNRC-NH2; disulfide 1-10)")
"0%"
>>> observed("C[C@@H]1NC(=O)[C@H](Cc2c[nH]c3ccccc23)NC(=O)[C@H](CCCNC(=N)N)NC(=O)[C@H](CCCNC(=N)N)NC(=O)[C@@H](N)CSSC[C@@H](C(N)=O)NC(=O)[C@H](CCCNC(=N)N)NC(=O)[C@H](CC(N)=O)NC(=O)[C@H](CCC(=O)O)NC(=O)[C@H](CCCNC(=N)N)NC1=O [PnCS1[W7E], CRRWARENRC ^*] (H-CRRWARENRC-NH2; disulfide 1-10)")
"0%"
>>> observed("C[C@@H]1NC(=O)[C@H](Cc2ccc(O)cc2)NC(=O)[C@H](CCCNC(=N)N)NC(=O)[C@H](CCCNC(=N)N)NC(=O)[C@@H](N)CSSC[C@@H](C(N)=O)NC(=O)[C@H](CCCNC(=N)N)NC(=O)[C@H](CC(N)=O)NC(=O)[C@H](Cc2c[nH]c3ccccc23)NC(=O)[C@H](CCCNC(=N)N)NC1=O [PnCS1[W4Y], CRRYARWNRC ^*] (H-CRRYARWNRC-NH2; disulfide 1-10)")
"0%"
>>> observed("CC(=O)N[C@H]1CSSC[C@@H](C(=O)O)NC(=O)[C@H](CCCNC(=N)N)NC(=O)[C@H](CC(N)=O)NC(=O)[C@H](Cc2c[nH]c3ccccc23)NC(=O)[C@H](CCCNC(=N)N)NC(=O)[C@H](C)NC(=O)[C@H](Cc2c[nH]c3ccccc23)NC(=O)[C@H](CCCNC(=N)N)NC(=O)[C@H](CCCNC(=N)N)NC1=O [PnCS1Ac, Ac-CRRWARWNRC] (Ac-CRRWARWNRC-OH; disulfide 1-10)")
"0%"
